ASSAY SYSTEM: High affinity 3',5'-cyclic-AMP phosphodiesterase 7A (Homo sapiens)
Sequence (Q13946 whole entry): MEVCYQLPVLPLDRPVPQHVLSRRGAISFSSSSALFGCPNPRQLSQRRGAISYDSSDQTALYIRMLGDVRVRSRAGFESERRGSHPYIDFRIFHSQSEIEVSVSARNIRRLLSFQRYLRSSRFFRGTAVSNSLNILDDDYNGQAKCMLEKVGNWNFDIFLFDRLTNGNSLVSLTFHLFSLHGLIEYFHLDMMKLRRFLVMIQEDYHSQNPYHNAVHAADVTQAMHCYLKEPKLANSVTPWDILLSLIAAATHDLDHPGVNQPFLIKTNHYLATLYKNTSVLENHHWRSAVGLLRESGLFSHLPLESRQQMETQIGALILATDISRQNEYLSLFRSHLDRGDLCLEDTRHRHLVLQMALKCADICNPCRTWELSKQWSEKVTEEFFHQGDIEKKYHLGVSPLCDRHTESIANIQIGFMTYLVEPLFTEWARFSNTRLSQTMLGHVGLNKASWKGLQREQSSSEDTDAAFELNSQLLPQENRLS
EXPERIMENT: Inhibition of human recombinant PDE7A1 using […] after 20 mins by scintillation proximity assay
ENDPOINT LABEL: pIC50
Worth noting: pIC50 values are minus log10 of concentrations stated in mol/L.

Solved entries (count: 7):
COMPOUND STRING | pIC50
CSc1nc2ccc(Br)cc2c(=O)n1-c1ccc(F)c(F)c1F | 5.29
CSc1nc2ccccc2c(=S)n1-c1c(F)cccc1F | 5.49
CSc1nc2c(C)cccc2c(=O)n1-c1ccccc1Br | 5.77
CSc1nc2ccccc2c(=S)n1-c1ccccc1Br | 5.27
Fc1cccc(F)c1-n1c(=S)[nH]c2ccccc2c1=S | 6.32
Cc1cccc2c(=O)n(-c3c(F)cccc3F)c(=S)[nH]c12 | 5.03
O=c1c2ccccc2[nH]c(=S)n1-c1ccc(F)c(F)c1F | 5.15

Turning now to a further record.
## Input Field request: pIC50 | item: CSc1nc2c(Cl)cccc2c(=O)n1-c1c(F)cccc1F
## Output 4.82

Numbers sourced from ChEMBL document CHEMBL3085684.
